- Tested on: E. coli RNase P holoenzyme (M1 P RNA + rnpA protein) (UniProt P0A7Y8)
- Sequence: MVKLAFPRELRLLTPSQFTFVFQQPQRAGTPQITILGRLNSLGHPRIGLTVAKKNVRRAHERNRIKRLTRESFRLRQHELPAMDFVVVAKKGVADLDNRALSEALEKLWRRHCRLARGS
- Test description: relative kcat/Km (krel) vs genomic leader AAAGAU (relative (reference leader = 1)); higher = faster RNase P cleavage
- Experimental setup: fraction of substrate reacted: ~13-16% (15.68% repeat 1, 13.17% repeat 2)
In all, about 4,100 sequences were measured (“relative kcat/Km (krel) vs genomic leader AAAGAU”: median about 1.7, highest 2% from about 6.5 on). Only a selection was taken, and the highest values are over-represented in it overall.
Property: relative kcat/Km

Req: Data request, read-out relative kcat/Km, for TCGCAA
Resp: 2.55

Req: Please answer likewise for CTACTT
Resp: 2.2

Req: Same lookup for CCCGCC , please.
Resp: 4.24

Req: Same question, GATCGA this time
Resp: 2.79

Req: Repeat for the following sequence: GTGACT
Resp: 0.972

Req: Proceed to AACACT
Resp: 2.41

Req: Again, but for CGAAGA
Resp: 2.39

Req: GTGCAC ?
Resp: 1.29

Req: Lookup CCCGCA
Resp: 3.43

Req: What about this sequence? TTGCAA
Resp: 2.13

Req: Same again, this time with GCCGCC
Resp: 3.21

Req: Next: TACGCA
Resp: 4.27

Req: Request: CCTCCC
Resp: 1.06

Req: Okay, and GGCCTC ?
Resp: 0.933

Req: Could you do the same for TACGCC , please?
Resp: 5.35

Req: Also, CAAGCT please.
Resp: 0.905

Req: Can you handle TCCGCT next?
Resp: 2.55

Req: Also CCTACA ?
Resp: 1.82

Req: Input TCCGCC
Resp: 5.9

Req: Next entry: GACGCC
Resp: 4.62

Req: Again, but for GACGCG
Resp: 0.59

Req: Record: GACGCT
Resp: 2.17

Req: How about this sequence: TTAGAA
Resp: 2.61

###

- Tested on: E. coli RNase P holoenzyme (M1 P RNA + rnpA protein)
- Sequence: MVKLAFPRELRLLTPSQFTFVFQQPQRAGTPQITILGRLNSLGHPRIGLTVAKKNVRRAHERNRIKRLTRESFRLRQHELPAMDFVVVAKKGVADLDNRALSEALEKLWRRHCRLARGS
- Test description: relative kcat/Km (krel) vs genomic leader AAAGAU (relative (reference leader = 1)); higher = faster RNase P cleavage
- Experimental setup: fraction of substrate reacted: ~26-29% (28.66% repeat 1, 26.4% repeat 2)
Whole data set: some 4,100 sequences, median “relative kcat/Km (krel) vs genomic leader AAAGAU” near 1.7, cut for the highest 2% near 6.5. The sample holds the highest values, similar sequences and a random draw of the others, so the mix is not that of the screen.
Property: relative kcat/Km
Lab note: record the figure alone, no unit after it.

Req: # relative kcat/Km lookup, item TCATAA
Resp: 5.77

Req: What do you get for TGGAGG ?
Resp: 0.887

Req: Likewise for TAATAT ?
Resp: 7.45

Req: Follow-up entry: TAATAA
Resp: 5.5

Req: Same question for TCATAT please.
Resp: 8.18

Req: Another sequence to look at: ACGGGT
Resp: 1.35

Req: Would you kindly repeat that for TCATAC ?
Resp: 7.38

Req: Same lookup for TATGCC , please.
Resp: 2.97

Req: Thanks! And AAAAGC ?
Resp: 0.981

Req: Can you handle ACATAT next?
Resp: 6.5

Req: Cool, now CCGTGC
Resp: 1.84

Req: Now consider GAATAT and answer again.
Resp: 6.29
